Data provenance is patent US8569302B2.

# System: human hepatoma Huh-7 cell line harboring a HCV replicon
# PROTOCOL_DETAILS: HCV replicon assay (inhibition of viral replication, luciferase readout)
# Format: cell-based
# TEST_PARAMETERS: Hepatitis C virus, 72 h, Huh-7 HCV replicon cells, 3 days incubation
# maps each entry to its inhibition at 2 µM

>  <COMPOUND>
CC(C)(C)C#Cc1cc(N(C(=O)[C@H]2CC[C@H](C)CC2)[C@H]2CC[C@H](Oc3ccc(N4CCCC4)nn3)CC2)c(C(=O)O)s1

>  <inhibition at 2 µM, %>
99.8

$$$$
>  <COMPOUND>
CCOc1cc(OCC[C@H](C)N(c2cc(C#CC(C)(C)C)sc2C(=O)O)C(=O)[C@H]2CC[C@H](C)CC2)c2ccc(OC)c(C)c2n1

>  <inhibition at 2 µM, %>
95.4

$$$$
>  <COMPOUND>
CC(C)(C)C#Cc1cc(N(C(=O)[C@H]2CC[C@H](C)CC2)[C@H]2CC[C@H](Sc3nc(N)n[nH]3)CC2)c(C(=O)O)s1

>  <inhibition at 2 µM, %>
99.9

$$$$
>  <COMPOUND>
C[C@@H](CCOc1ccccn1)N(c1cc(C#CC(C)(C)C)sc1C(=O)O)C(=O)[C@H]1CC[C@H](C)CC1

>  <inhibition at 2 µM, %>
97.5

$$$$
>  <COMPOUND>
CC1=CCC(C(=O)N(c2cc(C#CC(C)(C)C)sc2C(=O)O)[C@H]2CC[C@H](O[C@H]3CCOC3)CC2)[C@@H](C)C1 (single isomer, unassigned) [Compound 302]

>  <inhibition at 2 µM, %>
100

$$$$
>  <COMPOUND>
CC(C)(C)C#Cc1cc(N(C(=O)[C@H]2CC[C@H](C)CC2)[C@H]2CC[C@H](Sc3ccccn3)CC2)c(C(=O)O)s1

>  <inhibition at 2 µM, %>
97.7

$$$$
>  <COMPOUND>
Cn1nnnc1S[C@H]1CC[C@H](N(c2cc(C#CC(C)(C)C)sc2C(=O)O)C(=O)[C@H]2CC[C@H](C)CC2)CC1

>  <inhibition at 2 µM, %>
100

$$$$
>  <COMPOUND>
C[C@@H](CCOc1ccc(O)nn1)N(c1cc(C#CC(C)(C)C)sc1C(=O)O)C(=O)[C@H]1CC[C@H](C)CC1

>  <inhibition at 2 µM, %>
100

$$$$
>  <COMPOUND>
CC(C)(C)C#Cc1cc(N(C(=O)[C@H]2CC[C@H](C)CC2)C2CCC(Oc3cc[n+]([O-])cc3)CC2)c(C(=O)O)s1 (stereo partly drawn)

>  <inhibition at 2 µM, %>
99.9

$$$$
>  <COMPOUND>
CC1CCC(C(=O)N(c2cc(C#CC(C)(C)C)sc2C(=O)O)[C@H]2CC[C@H](Oc3ccnc(CN(C)C)c3)CC2)CC1 (stereo partly drawn)

>  <inhibition at 2 µM, %>
100

$$$$
>  <COMPOUND>
CC1=CCC(C(=O)N(c2cc(C#CC(C)(C)C)sc2C(=O)O)[C@H]2CC[C@H](O[C@@H]3CCOC3)CC2)[C@H](C)C1 (single isomer, unassigned)

>  <inhibition at 2 µM, %>
100

$$$$
>  <COMPOUND>
Cn1cnc(S(=O)(=O)N2CCC(N(c3cc(C#CC(C)(C)C)sc3C(=O)O)C(=O)[C@H]3CC[C@H](C)CC3)CC2)c1

>  <inhibition at 2 µM, %>
100

$$$$
